test: Cytotoxicity measurement in uninfected PBMCs (MTS staining); type: cell-based; conditions: human PBMCs without virus, seven days; read-out: TC50
quantity: CC50 at 7 days

• Cc1cn([C@H]2C[C@H](N=[N+]=[N-])[C@@H](CO)O2)c(=O)[nH]c1=O [AZT, 3′-Azido-3′-deoxythymidine, reference compound] = > 1000 nM
